Reported CL/F values for a set of compounds
Assay: Clearance in Sprague-Dawley rat at 10 mg/kg, po measured up to 12 hrs by UPLC-QTOF/MS analysis
Type: ADME, organism-based
Settings: in vivo
OBSERVED_PROPERTY: CL/F (mL/min/kg)

FC(F)(F)c1cccc(-n2cc(CN3CCc4c([nH]c5ccccc45)C3)nn2)c1 | 378
FC(F)(F)c1ccccc1-n1cc(CN2CCc3c([nH]c4ccccc34)C2)nn1 | 148

* * *

Biological target: Transient receptor potential cation channel subfamily V member 1 (Homo sapiens, UniProt Q8NER1)
Sequence (Q8NER1 whole entry): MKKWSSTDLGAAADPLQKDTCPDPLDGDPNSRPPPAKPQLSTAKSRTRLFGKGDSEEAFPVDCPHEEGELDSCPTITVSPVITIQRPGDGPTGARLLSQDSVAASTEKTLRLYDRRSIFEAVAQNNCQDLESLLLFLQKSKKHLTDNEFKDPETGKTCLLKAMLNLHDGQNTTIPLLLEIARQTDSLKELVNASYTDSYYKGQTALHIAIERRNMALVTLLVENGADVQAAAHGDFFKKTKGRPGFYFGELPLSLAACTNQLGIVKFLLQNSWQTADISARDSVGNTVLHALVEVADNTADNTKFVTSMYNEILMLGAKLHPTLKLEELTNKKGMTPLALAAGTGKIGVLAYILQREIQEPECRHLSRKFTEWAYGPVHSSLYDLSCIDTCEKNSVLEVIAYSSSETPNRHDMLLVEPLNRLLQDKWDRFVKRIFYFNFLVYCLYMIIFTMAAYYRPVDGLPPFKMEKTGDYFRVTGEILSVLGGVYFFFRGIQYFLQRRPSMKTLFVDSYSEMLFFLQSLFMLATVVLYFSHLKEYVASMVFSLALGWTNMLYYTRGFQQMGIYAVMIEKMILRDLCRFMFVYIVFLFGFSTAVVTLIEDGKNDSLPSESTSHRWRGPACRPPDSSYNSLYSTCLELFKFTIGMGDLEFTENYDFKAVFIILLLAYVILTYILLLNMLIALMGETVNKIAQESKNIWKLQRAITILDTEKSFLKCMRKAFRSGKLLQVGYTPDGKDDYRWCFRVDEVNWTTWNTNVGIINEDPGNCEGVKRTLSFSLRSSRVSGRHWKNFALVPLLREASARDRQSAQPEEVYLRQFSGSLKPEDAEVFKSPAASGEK
Assay: Antagonist activity at capsaicin-induced human recombinant TRPV1 expressed in CHO-K1 cells co-expressing aequorin incubated for 2.5 mins in presence of ATP followed by capsaicin addition by luminescence assay
Lab note: compare IC50 with 500 nM, writing y if less and n if equal or more.

CC(C)(C)c1ccc(-n2cc(CN3CCc4cc(Cl)ccc43)nn2)cc1 | n
COc1ccc(-n2cc(CN3CCc4c([nH]c5ccccc45)C3)nn2)cc1 | n
CC(C)c1ccccc1-n1cc(CN2CCc3c([nH]c4ccccc34)C2)nn1 | n
FC(F)(F)c1ccc(-n2cc(CN3CCc4c([nH]c5ccccc45)C3)nn2)cc1 | y
c1ccc(-n2cc(CN3CCc4c([nH]c5ccccc45)C3)nn2)cc1 | y
Fc1cccc(-n2cc(CN3CCc4ccccc43)nn2)c1 | n
Brc1ccc(-n2cc(CN3CCc4c([nH]c5ccccc45)C3)nn2)cc1 | n
c1cc(-n2cc(CN3CCc4c([nH]c5ccccc45)C3)nn2)c2ccncc2c1 | n
Fc1cccc(-n2cc(CN3CCc4c([nH]c5ccccc45)C3)nn2)c1 | y
CC(C)(C)c1ccc(-n2cc(CN3CCc4ccccc43)nn2)cc1 | n
COc1ccc(-n2cc(CN3CCc4c([nH]c5ccccc45)C3)nn2)cc1OC | n
Fc1ccccc1-n1cc(CN2CCc3c([nH]c4ccccc34)C2)nn1 | y
Clc1cccc(-n2cc(CN3CCc4c([nH]c5ccccc45)C3)nn2)c1 | y
CC(C)(C)c1ccc(-n2cc(CN3CCc4c([nH]c5ccccc45)C3)nn2)cc1 | n
